Values compiled from ChEMBL document CHEMBL1124835.

Protocol description: physchem
Assay context: octanol/water, pH 7.4
Numbered stars: 1 amine (or outer) side, 2 acyl side, 3 side chain; on linkers, the order of the positions; unused ones are H or OH. Bridge positions count the residues as written; N and C are the ends. Square brackets hold non-standard residues; d marks the D form. Peptide text beside a SMILES is read from it. I, II: the chains in the order shown. Actinocin(1to9) = Cc1c2oc3c(C)ccc(C(=O)[*:2])c3nc-2c(C(=O)[*:1])c(N)c1=O; NMeV = CN[C@H](C(=O)O)C(C)C; Sar = CNCC(=O)O
For each of the compounds below, state its logD.
Numbers only.

Compound: Cc1c2oc3c(C)ccc(C(=O)N[C@@H]4C(=O)N[C@H](C(C)C)C(=O)N5CCC[C@H]5C(=O)N(C)CC(=O)N(C)[C@@H](C(C)C)C(=O)O[C@@H]4C)c3nc-2c(C(=O)N[C@@H]2C(=O)N[C@H](C(C)C)C(=O)N3CCC[C@H]3C(=O)N(C)CC(=O)N(C)[C@@H](C(C)C)C(=O)O[C@@H]2C)c(N)c1=O [DACTINOMYCIN] (I: T[dV]P[Sar][NMeV] / II: T[dV]P[Sar][NMeV]; ester I:1-I:C, II:1-II:C; linker I:N-II:N via Actinocin(1to9))
logD: 3.21

Compound: CC1(C)N=C(N)N=C(N)N1c1cccc(O)c1
logD: -3.67

Compound: CC(=O)c1cccc(N2C(N)=NC(N)=NC2(C)C)c1
logD: -3.55

Compound: CC[n+]1c(-c2ccccc2)c2cc(N)ccc2c2ccc(N)cc21.[Br-] [HOMIDIUM BROMIDE]
logD: 1.15

Compound: O=C(O)CCCc1ccc(N(CCCl)CCCl)cc1
logD: 1.47

Compound: O=[N+]([O-])c1cccc2ccc[n+]([O-])c12
logD: 1.02

Dear colleague, could you please provide logD for the compounds listed below?
1. C[N+]1(C)CCC(OC(=O)C(c2ccccc2)c2ccccc2)CC1.[I-]
2. CO[C@H](C(=O)[C@@H](O)[C@@H](C)O)[C@@H]1Cc2cc3cc(O[C@H]4C[C@@H](O[C@H]5C[C@@H](O)[C@H](O)[C@@H](C)O5)[C@H](O)[C@@H](C)O4)c(C)c(O)c3c(O)c2C(=O)[C@H]1O[C@H]1C[C@@H](O[C@H]2C[C@@H](O[C@H]3C[C@](C)(O)[C@H](O)[C@@H](C)O3)[C@@H](O)[C@@H](C)O2)[C@H](O)[C@@H](C)O1
3. COc1cc([C@@H]2c3cc4c(cc3[C@H](O)[C@H]3COC(=O)[C@H]23)OCO4)cc(OC)c1OC
4. CC[C@H]1OC(=O)[C@H](C)[C@@H](O[C@H]2C[C@@](C)(OC)[C@@H](O)[C@H](C)O2)[C@H](C)[C@@H](O[C@@H]2O[C@H](C)C[C@H](N(C)C)[C@H]2O)[C@](C)(O)C[C@@H](C)C(=O)[C@H](C)[C@@H](O)[C@]1(C)O

Found:
2.64
-0.25
2.01
1.26

Lookup: Reported logD for COc1cccc2c1C(=O)c1c(O)c3c(c(O)c1C2=O)C[C@@](O)(C(=O)CO)C[C@@H]3O[C@H]1C[C@H](N)[C@H](O)[C@H](C)O1 : what is it?
Found: 0.1
